Sourced from PubChem BioAssay AID192

- Tested on: BDF1 mice, B16 melanoma ip, median survival T/C
- Assay comment: NCI In Vivo Anticancer Drug Screen. Data for tumor model B16 Melanoma (intraperitoneal) in B6D2F1 (BDF1) mice
- Recorded conditions: endpoint: median survival time; dose: 6.25 mg/kg/injection; schedule: Q01DX009 (ip); vehicle: saline with Tween-80
Inconclusive results and toxic doses are left out. How the source made its calls: active means survival T/C of 150% or more; inactive means T/C below 125% in these data.
A correct response names exactly one class from active, inactive

# Compound, Study system, Discrete label
records = [
    ("O=[N+]([O-])c1ccc(/C=N/c2ncc(Br)s2)o1", "BDF1 mice, B16 melanoma ip, median survival T/C", "inactive"),
]

Prompt: Which outcome was assigned to C[CH2][Ge]([CH2]C)[CH2]C.C[CH2][Ge]([CH2]C)[CH2]C.C[CH2][Ge]([CH2]C)[O][Ge]([CH2]C)[CH2]C in this test?
Completion: inactive

Prompt: Dear all, I need the recorded test outcome for Cc1nc2ccccc2nc1CI , thank you.
Completion: inactive

Prompt: Recorded test outcome, item CCS(=O)(=O)Nc1cccc(Nc2c3cccc(C)c3nc3c(C)cccc23)c1OC
Completion: active

Prompt: Please state the recorded outcome for this compound: C1CC2CCC3CCCC4CCC(C1)C2C34 (stereo unspecified)
Completion: inactive

Prompt: Status in this test for CC1(C)OC2C(COC(=O)c3ccc([N+](=O)[O-])cc3)OC(NC(=O)N(CCCl)N=O)C2O1 (stereo unspecified) ?
Completion: active

Prompt: What is the recorded call for this compound in the test? Cc1n[nH]c2ccc([N+](=O)[O-])cc2c1=O
Completion: inactive

Prompt: Please indicate how the test categorized CCn1cnc2c(=S)nc[nH]c21 .
Completion: inactive

Prompt: Returns: the outcome recorded for Cc1cc(/C=C\c2ccc3ccccc3[n+]2C)c(O)c2ncccc12 in this assay.
Completion: inactive

Prompt: What call does the record list for ClC1CCC[N-]C1.ClC1CCC[N-]C1.[Cl][Pt+2]([Cl])([Cl])[Cl] (stereo unspecified) ?
Completion: inactive

Prompt: Entry C=C/C(C)=C/[C@H](C)C(=O)C[C@H](O)CC1CC(=O)NC(=O)C1 : call = ?
Completion: inactive

---

Would you mind telling me the reported T/C of each entry?
- Tested on: BDF1 mice, B16 melanoma ip, median survival T/C
- Assay comment: NCI In Vivo Anticancer Drug Screen. Data for tumor model B16 Melanoma (intraperitoneal) in B6D2F1 (BDF1) mice
- Recorded conditions: endpoint: median survival time; dose: 100.0 mg/kg/injection; schedule: Q01DX009 (ip); vehicle: Klucel (hydroxypropylcellulose) (HPC); higher = longer survival
Inconclusive results and toxic doses are left out.

Guide cases for T/C, answers given:
# Compound smiles, T/C
rows = [
    ("CCOC(=O)C(=CNc1cccc(N)n1)C(=O)OCC", "107 % of control"),
    ("CN(C)c1ccc(C=Nc2ccc3c(c2)Cc2ccccc2-3)cc1", "106 % of control"),
    ("CC(=O)N(C)N(Cc1ccc(C#N)cc1)C(C)=O", "99 % of control"),
    ("CCN(C(=O)c1cccc(C(=O)N(CC)c2ccccc2C)c1)c1ccccc1C", "98 % of control"),
]

# ---- query compound ----
Prompt: Given the entry S=P(Nc1ccccc1)(Nc1ccccc1)c1ccccc1 , report its measured T/C.
Completion: 104 % of control

---

- Tested on: BDF1 mice, B16 melanoma ip, median survival T/C
- Assay comment: NCI In Vivo Anticancer Drug Screen. Data for tumor model B16 Melanoma (intraperitoneal) in B6D2F1 (BDF1) mice
- Recorded conditions: endpoint: median survival time; dose: 400.0 mg/kg/injection; schedule: Q01DX009 (ip); vehicle: Klucel (hydroxypropylcellulose) (HPC); higher = longer survival
Toxic doses and inconclusive results are not listed.
Observation type: T/C

# Molecule, Study system, T/C
measured = [
    ("O=C(Nc1ccc(Br)cc1)c1ccc(Cl)c(Cl)c1", "BDF1 mice, B16 melanoma ip, median survival T/C", "114 % of control"),
]

Hi there! I need T/C for each item below, if you can.
1. CC[C@H](CC[C@@H](C)[C@H]1CC[C@H]2[C@@H]3CC=C4C[C@@H](O)CC[C@]4(C)[C@H]3CC[C@]12C)C(C)C
2. CCC/C(=C\C(=O)O)CC
3. COc1ccc(NC(=O)c2cccc(C(=O)Nc3ccc(OC)cc3)c2)cc1
4. O=CNC(c1ccccc1)(c1ccccc1)c1ccccc1

Completion:
1: 94 % of control; 2: 97 % of control; 3: 102 % of control; 4: 94 % of control

Dear reader, for each entry below, please note its T/C.
1. CCOC(=O)C[Si](C)(C)C
2. CCCCOC(OCCCC)C(C)=O
3. CC(=O)CC(=O)N1CCCC(C)C1 (stereo not given)
4. Brc1cnc(OCc2ccccc2)nc1OCc1ccccc1
5. O=C(Nc1cc(C(F)(F)F)ccc1Cl)c1ccc(Cl)cc1
6. CCCN(CCC)C(=O)c1ccncc1

Completion:
1: 97 % of control; 2: 93 % of control; 3: 110 % of control; 4: 107 % of control; 5: 103 % of control; 6: 95 % of control

Parameters: items (list). Returns: T/C for each item.
1. O=C1c2ccccc2CC12OC2c1ccccc1 (stereo not given)
2. Cc1ccc(C)c(NC(=O)NC(C)C)c1
3. COc1ccccc1NC(=O)Nc1ccccc1
4. CCOC(=O)c1c(C)[nH]c2c(-c3ccccc3)c3cc(Cl)ccc3nc12
5. CCCCN(CC)C(=S)S[Te](SC(=S)N(CC)CCCC)(SC(=S)N(CC)CCCC)SC(=S)N(CC)CCCC

Completion:
["96 % of control", "103 % of control", "109 % of control", "94 % of control", "100 % of control"]

Hey, quick one: what's T/C for each of these?
1. CC(=O)CC(=O)NC1CCCC1
2. COc1cc(C2N(c3ccccc3)CCN2c2ccccc2)cc(OC)c1OC
3. C/C=C/C(=O)OC(C)CCC(CC)CCCC (stereo not given)
4. CCC(C)C1CCCCC1 (stereo not given)
5. COc1ccc(CCNC(=S)NCCc2ccc(OC)c(OC)c2)cc1OC
6. CCCCOC(=O)C1C(C(=O)OCCCC)C2(Cl)C(Cl)=C(Cl)C1(Cl)C2(Cl)Cl (stereo not given)

Completion:
1. 107 % of control
2. 96 % of control
3. 90 % of control
4. 98 % of control
5. 115 % of control
6. 113 % of control

---

- System: BDF1 mice, B16 melanoma ip, median survival T/C
- Assay comment: NCI In Vivo Anticancer Drug Screen. Data for tumor model B16 Melanoma (intraperitoneal) in B6D2F1 (BDF1) mice
- Recorded conditions: endpoint: median survival time; dose: 50.0 mg/kg/injection; schedule: Q01DX009 (ip); vehicle: saline with Tween-80; higher = longer survival
Inconclusive results and toxic doses are left out.
Would you mind telling me the reported T/C of each entry?

Please review the entries below; each comes with its answer.
# Compound, Observation type, Experimental result
data = [
    ("CC1(C)N=C(N)N=C(N)N1c1ccc(OCCNS(=O)(=O)c2cccc(S(=O)(=O)F)c2)c(Cl)c1", "T/C", "120 % of control"),
    ("CCCCC(SC(CC)(C(C)=O)c1ccccc1)C(N)=O (stereo not given)", "T/C", "89 % of control"),
    ("CC(NC(=O)C(C)NC(=O)OC(C)(C)C)C(=O)O (stereo not given)", "T/C", "94 % of control"),
    ("O=C(Nc1ccccc1C(=O)O)c1cc([N+](=O)[O-])cc([N+](=O)[O-])c1", "T/C", "111 % of control"),
    ("Cc1cc(Cl)ccc1NC(=O)c1ccc([N+](=O)[O-])cc1", "T/C", "104 % of control"),
]

Working through the 4 compounds below one at a time, give T/C for each.
1. CCc1c(CC(=O)O)c2cc(C)ccc2n1Cc1ccc(Cl)cc1
2. CCc1nc2cc(C)c(C)cc2[nH]1
3. CCN(CC)c1nc(Cl)nc(NC(C)C)n1
4. CC/C(=C(/CC)c1ccc(O)cc1)c1ccc(O)cc1

Completion:
["97 % of control", "104 % of control", "95 % of control", "100 % of control"]

---

- System: BDF1 mice, B16 melanoma ip, median survival T/C
- Assay comment: NCI In Vivo Anticancer Drug Screen. Data for tumor model B16 Melanoma (intraperitoneal) in B6D2F1 (BDF1) mice
- Recorded conditions: endpoint: median survival time; dose: 25.0 mg/kg/injection; schedule: Q01DX009 (ip); vehicle: saline with Tween-80
Toxic doses and inconclusive results are not listed. Rule for the calls: active = survival T/C of 150% or more; inactive = T/C below 125% in these data.
API: response.call in 1 (yes) = active, 0 (no) = inactive

# Compound, Study system, Discrete label
data = [
    ("O=C(Nc1ccc(Cl)c(Cl)c1)Nc1c(Oc2ccc(Cl)c(Cl)c2)ccc(Cl)c1S(=O)(=O)O", "BDF1 mice, B16 melanoma ip, median survival T/C", "0 (no)"),
    ("O=C(CC(=O)C(F)(F)C(F)(F)C(F)(F)F)c1csc2ccccc12", "BDF1 mice, B16 melanoma ip, median survival T/C", "0 (no)"),
    ("BrC1c2cccc3cccc(c23)C1Br (centres undefined)", "BDF1 mice, B16 melanoma ip, median survival T/C", "0 (no)"),
    ("Cc1nnc(NS(=O)(=O)c2ccc(N=Nc3nc4[nH]c(N)nc(=S)c4[nH]3)cc2)s1", "BDF1 mice, B16 melanoma ip, median survival T/C", "0 (no)"),
    ("C[CH2][Ge]([CH2]C)[CH2]C.C[CH2][Ge]([CH2]C)[CH2]C.C[CH2][Ge]([CH2]C)[O][Ge]([CH2]C)[CH2]C", "BDF1 mice, B16 melanoma ip, median survival T/C", "0 (no)"),
    ("COc1ccc(NC(=O)Nc2cc(C(F)(F)F)ccc2Cl)cc1", "BDF1 mice, B16 melanoma ip, median survival T/C", "1 (yes)"),
    ("CCCOP(=S)(N1CC1)N1CC1", "BDF1 mice, B16 melanoma ip, median survival T/C", "0 (no)"),
    ("CC1=CC2=C(C=O)C(=O)[C@](C)(O)[C@@H](O)C2=CO1", "BDF1 mice, B16 melanoma ip, median survival T/C", "0 (no)"),
    ("CC(C)(C)OC(=O)NC(Cc1ccc(OCc2c(Cl)cccc2Cl)cc1)C(=O)O (centres undefined)", "BDF1 mice, B16 melanoma ip, median survival T/C", "0 (no)"),
    ("Cc1cc2nc3[nH]c4ccccc4c3nc2cc1C", "BDF1 mice, B16 melanoma ip, median survival T/C", "0 (no)"),
]

Prompt: Which outcome was assigned to O=[N+]([O-])c1ccc(N=Nc2c(Cl)cc(O)cc2Cl)cc1 in this test?
Completion: 0 (no)

Prompt: How did this test come out for O=C(O)CNC(=O)C(Br)Cc1ccccc1 (centres undefined) ?
Completion: 0 (no)

Prompt: Dear all, I need the recorded test outcome for O=[N+]([O-])c1cc(Cl)cc2c1nc(NCCO)c1ccccc12 , thank you.
Completion: 0 (no)

Prompt: Lab log entry: CCCCC(=O)NN — outcome as called in the assay?
Completion: 0 (no)
